Where these numbers come from: ChEMBL document CHEMBL1147968

System: Staphylococcus
Assay Summary: Antibacterial activity against coagulase negative Staphylococcus after 18 to 24 hrs by agar dilution method
Type: functional
As shown below, each of these compounds has a reported MIC value.

Example entries begin here.
• C[C@@H](O)[C@H]1C(=O)N2C(C(=O)O)=C(S[C@@H]3CN[C@H](C(=O)N(C)C)C3)[C@H](C)[C@H]12 = 0.098 µg/mL
• C[C@@H](O)C1C(=O)N2C(C(=O)O)=C(S[C@@H]3CN[C@H](CN4CCOS4(=O)=O)C3)[C@H](C)C12 (some centres not stated) = 0.098 µg/mL
• C[C@@H](O)C1C(=O)N2C(C(=O)O)=C(S[C@@H]3CN[C@H](CN4CCCN(C)S4(=O)=O)C3)[C@H](C)C12 (some centres not stated) = 0.049 µg/mL
• C[C@@H](O)[C@H]1C(=O)N2C(C(=O)O)=C(SCCNC=N)C[C@H]12 [IMIPENEM ANHYDROUS] = 0.025 µg/mL
• C[C@@H](O)C1C(=O)N2C(C(=O)O)=C(S[C@@H]3CN[C@H](CN4CC(C)(C)NS4(=O)=O)C3)[C@H](C)C12 (some centres not stated) = 0.098 µg/mL
• C[C@@H](O)C1C(=O)N2C(C(=O)O)=C(S[C@@H]3CN[C@H](CN4CCNS4(=O)=O)C3)[C@H](C)C12 (some centres not stated) = 0.098 µg/mL

Attention now turns to another entry.
// returns reported MIC for input CCN1CCN(C[C@@H]2C[C@H](SC3=C(C(=O)O)N4C(=O)C([C@@H](C)O)C4[C@H]3C)CN2)S1(=O)=O (some centres not stated)
0.198 µg/mL

====

System: Klebsiella pneumoniae
Assay Summary: Antibacterial activity against Klebsiella pneumoniae 523 after 18 to 24 hrs by agar dilution method
Assay type: functional
As shown below, each of these molecules has a reported MIC value.
Respond numerically; units are µg/mL and should not be typed.

* C[C@@H](O)[C@H]1C(=O)N2C(C(=O)O)=C(SCCNC=N)C[C@H]12 [IMIPENEM ANHYDROUS] | 0.781
* CCN1CCN(C[C@@H]2C[C@H](SC3=C(C(=O)O)N4C(=O)C([C@@H](C)O)C4[C@H]3C)CN2)S1(=O)=O (some centres undefined) | 0.198

// returns reported MIC for input C[C@@H](O)C1C(=O)N2C(C(=O)O)=C(S[C@@H]3CN[C@H](CN4CCN(C)S4(=O)=O)C3)[C@H](C)C12 (some centres undefined)
0.098

Entry CC1CN(C[C@@H]2C[C@H](SC3=C(C(=O)O)N4C(=O)C([C@@H](C)O)C4[C@H]3C)CN2)S(=O)(=O)N1 (some centres undefined) please
0.198

====

As shown below, each of these compounds has a reported MIC value.
Tested on: Enterobacter cloacae
Assay Summary: Antibacterial activity against Enterobacter cloacae 34 after 18 to 24 hrs by agar dilution method
Assay type: functional
Respond numerically; units are µg/mL and should not be typed.

• CCN1CCN(C[C@@H]2C[C@H](SC3=C(C(=O)O)N4C(=O)C([C@@H](C)O)C4[C@H]3C)CN2)S1(=O)=O (some centres undefined) = 0.098
• C[C@@H](O)C1C(=O)N2C(C(=O)O)=C(S[C@@H]3CN[C@H](CN4CCCNS4(=O)=O)C3)[C@H](C)C12 (some centres undefined) = 0.049
• CC1CN(C[C@@H]2C[C@H](SC3=C(C(=O)O)N4C(=O)C([C@@H](C)O)C4[C@H]3C)CN2)S(=O)(=O)N1 (some centres undefined) = 0.195

Attention now turns to another entry.
// returns reported MIC for input C[C@@H](O)C1C(=O)N2C(C(=O)O)=C(S[C@@H]3CN[C@H](CN4CCCN(C)S4(=O)=O)C3)[C@H](C)C12 (some centres undefined)
0.025
